B1: Hairpin Ribozyme (parent)
chain: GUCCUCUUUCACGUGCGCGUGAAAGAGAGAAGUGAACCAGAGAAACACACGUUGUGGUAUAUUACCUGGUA

Variants of: B1
assay_explanation: self-cleavage, relative activity (ratio to wild type); higher = more cleavage; co-transcriptional
observed_property: self-cleavage
Enter a number only.

What does the record list as self-cleavage for C46A U52A ?
0.196

What does the record list as self-cleavage for U33C A44U ?
0.195

What does the record list as self-cleavage for G19A A64U ?
0.198
